tested on: Bacillus subtilis; assay: cleaved RNA product abundance (RNA/gDNA barcode ratio) relative to median wild-type variant (ratio to wild type); higher = more accumulation of the downstream cleavage product; settings: experiment (reporter, strain, medium): exp 8a: truncated aprE reporter, strain BJT201 with 2% xylose (RNase J1 expressed); cleavage site: glnRA (positions -5 to +31 mutated)
1 means recorded cleaved RNA product abundance is 0.3 or above; -1 means it is below 0.3.

Sample answers from the record:
INSERT INTO assay_data (sequence, measurement_target, class_assignment) VALUES
  ('CGACATGTCCCGCTTCTTTCATTAATACGTTAGCAACTGTTTTGCTATTTACATTTACCTTTTAAGAGGAGGAAT', 'Bacillus subtilis', -1),
  ('CGACATGTCCCGCTTCTTTCATTAATCCGTTAGCATCTGTTTTGCTATATAGATTTACCTTTTAAGAGGAGGAAT', 'Bacillus subtilis', 1),
  ('CGACATGTCCCGCTTCTTTCATTACTCCGTTAGCAACTGTTTTGCTATATATATTTACCTTTTAAGAGGAGGAAT', 'Bacillus subtilis', 1),
  ('CGACATGTCCCGCTTCTTTCATTATTCCGTTAGCAACTGTTTTTCTATATACATTTACCTTTTAAGAGGAGGAAT', 'Bacillus subtilis', 1),
  ('CGACATGTCCCGCTTCTTTCATTAATCCGTTAGCAACTGTTGTCCTATATACATTTACCTTTTAAGAGGAGGAAT', 'Bacillus subtilis', 1);

Confirm if cleaved RNA product abundance reported for the sequence `CGACATGTCCCGCTTCTTTCATTAATCCGTTAGCAACTGTTTTGATATATACACTTACCTTTTAAGAGGAGGAAT` is 0.3 or above.
1

Confirm if cleaved RNA product abundance reported for the sequence `CGACATGTCCCGCTTCTTTCATTAATCCATTAGCAACTGTTTTGCTATATACTTTTACCTTTTAAGAGGAGGAAT` is 0.3 or above.
-1

---

test system: Bacillus subtilis; test: cleaved RNA product abundance (RNA/gDNA barcode ratio) relative to median wild-type variant (ratio to wild type); higher = more accumulation of the downstream cleavage product; settings: experiment (reporter, strain, medium): exp 2b: truncated aprE reporter, strain BJT200; cleavage site: cggR-gapA (positions -7 to +36 mutated)
MET means recorded cleaved RNA product abundance is 0.6 or above; NOT MET means it is below 0.6.

Sample answers from the record:
INSERT INTO results (sequence, class_assignment) VALUES
  ('ACAGACGAAGGAGCCGCAAATAAGTTATTAATGGATGAATAATCCCTCAATATAAATATCTCTCACTTATTTAAA', 'NOT MET'),
  ('ACAGACGAAGGAGCCGCAAAGACGTTATTAATGGATGAATAATCCCTCAATATAAATATCTCTCACTTATTTAAA', 'NOT MET'),
  ('ACAGACGAAGGAGCCGCAAAGAAGCTATTAAGGGATGAATAATCCCTCAATATAAATATCTCTCACTTATTTAAA', 'NOT MET'),
  ('ACAGACGAAGGAGCCGCAAAGAAGTTATTAAGGGATGAATAATCCCTAAATATAAAAATCTCTCACTTATTTAAA', 'NOT MET'),
  ('ACAGACGAAGGAGCCGCAAAGAAGTTATTAAGAGATGAATAAGCCCTCAATATAAATATCTCTCACTTATTTAAA', 'NOT MET');

Confirm if cleaved RNA product abundance reported for the sequence `ACAGACGAAGGAGCCGCAAAGATATTATTAAGGGATGAATAATCCCTCAATATAAATATCTCTCACTTATTTAAA` is 0.6 or above.
MET

Confirm if cleaved RNA product abundance reported for the sequence `ACAGACGAAGGAGCCGCAAACAAGTTATTAAGGGATGAATAATCCCTCAATATACATATCTCTCACTTATTTAAA` is 0.6 or above.
MET

---

test system: Bacillus subtilis; assay: cleaved RNA product abundance (RNA/gDNA barcode ratio) relative to median wild-type variant (ratio to wild type); higher = more accumulation of the downstream cleavage product; conditions: experiment (reporter, strain, medium): exp 8a: truncated aprE reporter, strain BJT201 with 2% xylose (RNase J1 expressed); cleavage site: glnRA (positions -5 to +31 mutated)
true means recorded cleaved RNA product abundance is 0.6 or above; false means it is below 0.6.

Sample answers from the record:
INSERT INTO results (sequence, measurement_target, class_assignment) VALUES
  ('CGACATGTCCCGCTTCTTTCATTAATTCGTTAGCAACTGTTTTGCTATATACATTTACGTTTTAAGAGGAGGAAT', 'Bacillus subtilis', 'true'),
  ('CGACATGTCCCGCTTCTTTCATTAATCCGTTATCAACTGTTCTGCTATATACATTTACCTTTTAAGAGGAGGAAT', 'Bacillus subtilis', 'false'),
  ('CGACATGTCCCGCTTCTTTCATTATTCCGTTAGCAACTGTTTTGCTATCTACATTTACCTTTTAAGAGGAGGAAT', 'Bacillus subtilis', 'false'),
  ('CGACATGTCCCGCTTCTTTCATTAATCCGTTAGCAACTGTTTAGCAATATACATTTACCTTTTAAGAGGAGGAAT', 'Bacillus subtilis', 'false'),
  ('CGACATGTCCCGCTTCTTTCATTAGTCCGTTAGCAACTGTTTTGCTATATACTTTTACCTTTTAAGAGGAGGAAT', 'Bacillus subtilis', 'false'),
  ('CGACATGTCCCGCTTCTTTCATTAATCCGTGAGCAACTGTTTTGATATATACATTTACCTTTTAAGAGGAGGAAT', 'Bacillus subtilis', 'false');

Confirm if cleaved RNA product abundance reported for the sequence `CGACATGTCCCGCTTCTTTCATTAATACGTTAGCAACTGTTTTGCCATATACATTTACCTTTTAAGAGGAGGAAT` is 0.6 or above.
false

Confirm if cleaved RNA product abundance reported for the sequence `CGACATGTCCCGCTTCTTTCATTAATCCTTTAGCAACTGTTTTCCTATATACATTTACCTTTTAAGAGGAGGAAT` is 0.6 or above.
false

---

test system: Bacillus subtilis; assay: cleaved RNA product abundance (RNA/gDNA barcode ratio) relative to median wild-type variant (ratio to wild type); higher = more accumulation of the downstream cleavage product; conditions: experiment (reporter, strain, medium): exp 4a: truncated aprE reporter, strain BJT201 with 2% xylose (RNase J1 expressed); cleavage site: cggR-gapA (positions -7 to +36 mutated)
As shown below, each of these sequences has a reported cleaved RNA product abundance value.

INSERT INTO results (sequence, observed_result) VALUES
  ('ACAGACGAAGGAGCCGCAAAGAACTTAATAAGGAATGAATAATCCCTCAATATAAATATCTCTCACTTATTTAAA', 0.133),
  ('ACAGACGAAGGAGCCGCAAAGAAGTTATTAAGGGATGACTAAACCCTCAATATAAATATCTCTCACTTATTTAAA', 0.303),
  ('ACAGACGAAGGAGCCGCAAAGAAGTTATTATGGGATGAATAATCCCTCAATATAGATATCTCTCACTTATTTAAA', 0.323),
  ('ACAGACGAAGGAGCCGCAAAGAAGTTATTAAGGGATGAATCATCCCACAATATAAATATCTCTCACTTATTTAAA', 0.192),
  ('ACAGACGAAGGAGCCGCAAAGAAGTTATTAAGTAATGAATAATCCCTCAATATAAATATCTCTCACTTATTTAAA', 0.099),
  ('ACAGACGAAGGAGCCGCAAAGAAGTTATTATGGGATGAATAATCCCTCAACATAAATATCTCTCACTTATTTAAA', 0.361),
  ('ACAGACGAAGGAGCCGCAAAAAAGTTATTAAGGGATGAACAATCCCTCAATATAAATATCTCTCACTTATTTAAA', 0.764),
  ('ACAGACGAAGGAGCCGCAAAGAAGTTATTAAGGGATTAATAATGCCTCAATATAAATATCTCTCACTTATTTAAA', 0.125);

Given item `ACAGACGAAGGAGCCGCAAAGAAGTTATTAAGGGTTGTATAATCCCTCAATATAAATATCTCTCACTTATTTAAA` , the value recorded as its cleaved RNA product abundance is 0.309

Given item `ACAGACGAAGGAGCCGCAAAGAATTTATTAAGGGATGAATAATCCCTCAATTTAAATATCTCTCACTTATTTAAA` , the value recorded as its cleaved RNA product abundance is 0.0947

Given item `ACAGACGAAGGAGCCGCAAAGAAGTTAGTAAGGGAGGAATAATCCCTCAATATAAATATCTCTCACTTATTTAAA` , the value recorded as its cleaved RNA product abundance is 0.199

Given item `ACAGACGAAGGAGCCGCAAAGAAGTTATTAAGGGATGAATATTCTCTCAATATAAATATCTCTCACTTATTTAAA` , the value recorded as its cleaved RNA product abundance is 0.343

Given item `ACAGACGAAGGAGCCGCAAAGAAGTTATTAAGGGATGAATAATCCCTCTATATAAATCTCTCTCACTTATTTAAA` , the value recorded as its cleaved RNA product abundance is 0.529

Given item `ACAGACGAAGGAGCCGCAAAGAAGTTATTAAGGGATGAATAATGCATCAATATAAATATCTCTCACTTATTTAAA` , the value recorded as its cleaved RNA product abundance is 0.159
